Property: IC50; scope: individual compounds
biological target: EP4 (Homo sapiens, UniProt P35408); experiment: Functional calcium flux assay, EP4; conditions: stably transfected HEK293 cells; PGE2 10 nM; read-out: EP4 Ca2+-flux assay IC50
Sequence (P35408 whole entry): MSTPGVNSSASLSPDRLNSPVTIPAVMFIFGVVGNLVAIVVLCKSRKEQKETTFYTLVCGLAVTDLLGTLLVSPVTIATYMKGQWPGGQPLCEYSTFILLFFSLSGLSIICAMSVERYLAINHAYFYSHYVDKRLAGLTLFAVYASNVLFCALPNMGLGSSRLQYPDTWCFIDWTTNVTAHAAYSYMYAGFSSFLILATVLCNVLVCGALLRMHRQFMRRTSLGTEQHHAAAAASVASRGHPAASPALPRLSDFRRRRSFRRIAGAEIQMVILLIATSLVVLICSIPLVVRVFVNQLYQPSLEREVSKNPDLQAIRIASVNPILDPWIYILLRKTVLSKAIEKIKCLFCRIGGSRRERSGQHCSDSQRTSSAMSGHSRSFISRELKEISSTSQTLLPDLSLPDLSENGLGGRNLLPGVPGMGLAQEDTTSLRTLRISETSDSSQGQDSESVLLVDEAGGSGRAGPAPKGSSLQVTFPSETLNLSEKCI
Readout label: IC50

- Compound: "[2H]C([2H])([2H])C([2H])(c1ccc(-c2ccccc2)cc1)n1ncc2c(Cl)ccc(C(=O)NC3CC4(C3)CC(C(=O)O)C4)c21 (single isomer, unassigned) [Example 167]"
  Obs value: "3.5 nM"
- Compound: "O=C(NC1CC2(C1)CC(C(=O)O)C2)c1ccc(F)c2ccn(Cc3ccc(-c4ccccc4)c(F)c3)c12 (racemic) [Example 10]"
  Obs value: "< 1 nM"
- Compound: "CNC(=O)c1cccc(-c2ccc(Cn3ccc4c(F)ccc(C(=O)NC5CC6(C5)CC(C(=O)O)C6)c43)cc2)n1 (stereo not drawn) [Example 62]"
  Obs value: "< 1 nM"
- Compound: "CC(c1ccc(-c2ccccc2)cc1)n1ncc2c(Cl)ccc(C(=O)NC3CC4(C3)CC(C(=O)O)C4)c21 (single isomer, unassigned) [Example 130]"
  Obs value: "< 1 nM"
- Compound: "CNC(=O)c1ccc(-c2ccc(Cn3ccc4c(F)ccc(C(=O)NC5CC6(C5)CC(C(=O)O)C6)c43)cc2)cn1 (stereo not drawn) [Example 63]"
  Obs value: "< 1 nM"
- Compound: "COc1cccc(-c2ccc(C(C)n3ncc4c(Cl)ccc(C(=O)NC5CC6(C5)CC(C(=O)O)C6)c43)cc2)c1 (racemic) [Example 122]"
  Obs value: "4.7 nM"
- Compound: "O=C(NC1CC2(C1)CC(C(=O)O)C2)c1ccc(F)c2ccn(Cc3ccc4c(Br)cccc4c3)c12 (stereo not drawn) [Example 43]"
  Obs value: "< 1 nM"
- Compound: "COc1ccc(C(=O)NC2CC3(CC(CC(=O)O)C3)C2)c2c1cnn2Cc1ccc(-c2ccccc2)cc1 (stereo not drawn) [Example 161]"
  Obs value: "< 1 nM"
- Compound: "CC(C)(C)c1ccc(Cn2ccc3c(Cl)ccc(C(=O)NC4CC5(C4)CC(C(=O)O)C5)c32)cc1 (racemic) [Example 7]"
  Obs value: "< 1 nM"
- Compound: "COc1ccc2cc(-c3ccc(Cn4ccc5c(F)ccc(C(=O)NC6CC7(CC(CC(=O)O)C7)C6)c54)cc3)ccc2n1 (single isomer, unassigned) [Example 140]"
  Obs value: "< 1 nM"
- Compound: "O=C(NC1CC2(C1)CC(C(=O)O)C2)c1ccc(F)c2ccn(Cc3ccc(-c4cccc(OC(F)F)c4)cc3)c12 (stereo not drawn) [Example 50]"
  Obs value: "< 1 nM"
- Compound: "N#Cc1cccc(-c2ccc(Cn3ncc4c(Cl)ccc(C(=O)NC5CC6(CC(CC(=O)O)C6)C5)c43)cc2)c1 (stereo not drawn) [Example 144]"
  Obs value: "< 1 nM"
- Compound: "COc1ccccc1-c1ccc(Cn2ccc3c(F)ccc(C(=O)NC4CC5(C4)CC(C(=O)O)C5)c32)cc1 (racemic) [Example 18]"
  Obs value: "< 1 nM"
- Compound: "N#Cc1ccc(-c2ccc(Cn3ncc4c(Cl)ccc(C(=O)NC5CC6(CC(CC(=O)O)C6)C5)c43)cc2)cc1 (stereo not drawn) [Example 145]"
  Obs value: "< 1 nM"
- Compound: "CCOc1cccc(-c2ccc(Cn3ccc4c(F)ccc(C(=O)NC5CC6(C5)CC(C(=O)O)C6)c43)cc2)n1 (stereo not drawn) [Example 56]"
  Obs value: "< 1 nM"
- Compound: "O=C(NC1CC2(C1)CC(C(=O)O)C2)c1ccc(F)c2ccn(Cc3ccc(N4CCOCC4)cc3)c12 (racemic) [Example 31]"
  Obs value: "< 1 nM"
- Compound: "O=C(O)CC1CC2(C1)CC(NC(=O)c1cc(Cl)c(F)c3cnn(Cc4ccc(-c5ccccc5)cc4)c13)C2 (stereo not drawn) [Example 170]"
  Obs value: "5.1 nM"
- Compound: "N#Cc1ccc(-c2ccc(Cn3ccc4c(F)ccc(C(=O)NC5CC6(C5)CC(C(=O)O)C6)c43)cc2)cc1 (racemic) [Example 13]"
  Obs value: "< 1 nM"

Reference source: patent US12215093B2
